test system: Staphylococcus aureus; assay: Antibacterial activity against methicillin-resistant Staphylococcus aureus by NCCLS method; type: functional
Rule: MIC below 20 µg/mL gives T, anything at or above gives F.

Request: Hello, I'm reviewing records and need to know if MIC of COC(=O)[C@H](Cc1ccccc1)NC(=O)CSC1=C(OC)C(=O)c2ccccc2C1=O is below 20 µg/mL. Could you check?
Result: F

---

test system: SAS; assay: Cytotoxicity against human SAS cells assessed as reduction in cell viability after 48 hrs by MTT assay; assay type: functional, cell-based
IC50 vs 40 µM: less than gives Criterion met; not less than gives Criterion not met.

A selection of reference data follows.
smi=COC(=O)[C@@H](NC(=O)CSC1=C(C)C(=O)c2ccccc2C1=O)C(C)C system_name=SAS class_name="Criterion met"
smi=COC(=O)[C@H](CC(C)C)NC(=O)CSC1=C(OC)C(=O)c2ccccc2C1=O system_name=SAS class_name="Criterion met"

Request: IC50 strictly < 40 µM for this compound? COC(=O)CNC(=O)CSC1=CC(=O)c2cccc(OC)c2C1=O
Result: Criterion not met

Request: Same question, CC[C@H](C)[C@H](NC(=O)CSC1=CC(=O)c2cccc(OC)c2C1=O)C(=O)OC this time
Result: Criterion not met

Request: Cool, now COC(=O)CCCNC(=O)CSC1=C(OC)C(=O)c2ccccc2C1=O
Result: Criterion met

The values you see were collected from ChEMBL document CHEMBL3352332.
